# method_description: Half-life in male Sprague-Dawley rat at 3 mg/kg, iv measured after 24 hrs by LC-MS/MS analysis
# Assay type: ADME, organism-based
# assay_setup: in vivo
Bridge positions count the residues as written; N and C are the ends. Square brackets hold non-standard residues; d marks the D form. Peptide text beside a SMILES is read from it. * marks the point of attachment. Heptanoyl(6-Me) = CC(C)CCCCC(=O)*; Dab = NCC[C@H](N)C(=O)O; Dap = NC[C@H](N)C(=O)O
readout_type: half-life (h)

>>> readout_number("CC(C)CCCCC(=O)N[C@@H](CCN)C(=O)N[C@H](C(=O)N[C@@H](CN)C(=O)N[C@H]1CCNC(=O)[C@H]([C@@H](C)O)NC(=O)[C@H](CCN)NC(=O)[C@H](CCN)NC(=O)[C@H]([C@@H](C)O)NC(=O)[C@@H](Cc2ccccc2)NC(=O)[C@H](CCN)NC1=O)[C@@H](C)O ({Heptanoyl(6-Me)}-[Dab]T[Dap][Dab][Dab][dF]T[Dab][Dab]T; lactam 4-C)")
2.22
